The values you see were collected from ChEMBL document CHEMBL3769324.

Target: Amine oxidase [flavin-containing] B (Homo sapiens)
Experiment: Inhibition of MAOB (unknown origin)
parameter measured: IC50 (nM)

1 = CC(=O)c1ccc(OCc2ccc(Br)cc2)cc1O
2 = C#CCNCc1cc2cc(OCc3ccccc3)ccc2[nH]1
In: Two entries are listed, 1 and 2 . Which one carries the higher IC50? Write down the label of the entry you select.
Out: 2

P = O=C1CCCc2cc(OCc3ccc(I)cc3)ccc21
Q = O=C1CCc2ccc(OCc3ccc(Br)cc3)cc2N1
In: Would you kindly point out which of P and Q has the smaller IC50 figure? Write down the label of the entry you select.
Out: Q
(Q: 2.9 nM, P: 4.5 nM)

---

Measured Ratio IC50 by item
Species: Homo sapiens
Test: Selectivity index, ratio of IC50 for human MAOA to IC50 for human MAOB

CC(=O)c1cccc(OCc2cccc(Cl)c2)c1 1370
CC(=O)c1cccc(OCc2cccc(C(F)(F)F)c2)c1 > 4720
CC(=O)c1ccc(OCc2ccc(Br)cc2)cc1 > 1170
CC(=O)c1ccc(OCc2ccc(C(F)(F)F)cc2)cc1 > 1280
CC(=O)c1cccc(OCc2cccc(Br)c2)c1 > 1040
CC(=O)c1cccc(OCc2cccc([N+](=O)[O-])c2)c1 > 877
CC(=O)c1ccc(OCc2cccc(Br)c2)cc1 > 467
CC(=O)c1cccc(OCc2ccc(F)cc2)c1 > 1160
CC(=O)c1ccc(OCc2cccc(C)c2)cc1 > 1160
CC(=O)c1ccc(OCc2ccccc2C)cc1 > 1300

In: May I ask what Ratio IC50 has been recorded for CC(=O)c1ccc(OCc2ccc([N+](=O)[O-])cc2)cc1 ?
Out: > 1040

In: May I ask what Ratio IC50 has been recorded for CC(=O)c1ccc(OCc2ccc(F)cc2F)cc1 ?
Out: > 3660

In: May I ask what Ratio IC50 has been recorded for CC(=O)c1ccc(OCc2cccc(C(F)(F)F)c2)cc1 ?
Out: > 1720

---

Species: Homo sapiens
Test: Selectivity index, ratio of IC50 for human MAOA to IC50 for human MAOB
parameter measured: Ratio IC50

CC(=O)c1ccc(OCc2ccccc2C(F)(F)F)cc1 385
CC(=O)c1ccc(OCc2cccc([N+](=O)[O-])c2)cc1 493

---

Biological target: UniProt P21397
Experiment: Inhibition of MAOA (unknown origin)
pIC50: −log10 of the molar value.
parameter measured: pIC50

P = CC(=O)c1ccc(OCc2ccc(Br)cc2)cc1O
Q = O=C1CCCc2cc(OCc3ccc(I)cc3)ccc21
R = O=C1CCc2ccc(OCc3ccc(Br)cc3)cc2N1
S = C#CCNCc1cc2cc(OCc3ccccc3)ccc2[nH]1
In: Order by pIC50, smallest first, the items presented above. # output: labels, in the requested order
Out: P, R, Q, S
(P: 4.80, R: 5.10, Q: 5.89, S: 6.10)

---

Target: Amine oxidase [flavin-containing] A (Homo sapiens, UniProt P21397)
Sequence (P21397 whole entry): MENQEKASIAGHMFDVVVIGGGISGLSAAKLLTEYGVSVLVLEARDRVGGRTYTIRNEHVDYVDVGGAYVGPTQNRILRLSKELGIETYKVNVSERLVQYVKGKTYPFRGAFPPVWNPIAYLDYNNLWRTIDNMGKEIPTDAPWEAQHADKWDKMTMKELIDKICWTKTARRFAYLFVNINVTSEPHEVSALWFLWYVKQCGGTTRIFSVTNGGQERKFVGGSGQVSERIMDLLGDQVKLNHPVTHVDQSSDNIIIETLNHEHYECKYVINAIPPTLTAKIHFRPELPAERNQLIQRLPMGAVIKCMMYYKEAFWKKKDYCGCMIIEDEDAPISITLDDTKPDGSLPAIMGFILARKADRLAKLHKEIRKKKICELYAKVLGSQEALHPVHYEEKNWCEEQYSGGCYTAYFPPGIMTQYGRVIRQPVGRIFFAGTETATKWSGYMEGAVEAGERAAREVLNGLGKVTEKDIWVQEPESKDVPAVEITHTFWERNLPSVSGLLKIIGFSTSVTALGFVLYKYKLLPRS
Assay: Inhibition of human MAOA using p-tyramine as substrate after 15 mins by Amplex Red MAO assay
parameter measured: IC50 (µM)

CC(=O)c1ccc(OCc2ccccc2C(F)(F)F)cc1 70.5
CC(=O)c1cccc(OCc2ccc([N+](=O)[O-])cc2)c1 88.3
CC(=O)c1cccc(OCc2ccc(Cl)cc2)c1 39.7
CC(=O)c1cccc(OCc2ccc(Br)cc2)c1 48.7
CC(=O)c1ccc(OCc2ccc(Cl)cc2)cc1 93.6

a = CC(=O)c1cccc(OCc2cccc(Cl)c2)c1
b = CC(=O)c1ccc(OCc2cccc(Cl)c2)cc1
In: Would you kindly point out which of a and b has the smaller IC50 figure? Write down the label of the entry you select.
Out: a
(a: 46.8 µM, b: 83.3 µM)

---

Organism: Homo sapiens
Test: Selectivity index, ratio of IC50 for human MAOA to IC50 for human MAOB
parameter measured: Ratio IC50

Consider the reported Ratio IC50 for these molecules:
CC(=O)c1ccc(OCc2ccccc2Cl)cc1 288
CC(=O)c1ccc(OCc2ccccc2)cc1 > 909
CC(=O)c1ccc(OCc2ccccc2[N+](=O)[O-])cc1 > 352
CC(=O)c1cccc(OCc2ccccc2)c1 > 51.3
CC(=O)c1cccc(OCc2cccc(F)c2)c1 > 518

In: May I ask what Ratio IC50 has been recorded for CC(=O)c1ccc(OCc2ccc(F)c(F)c2)cc1 ?
Out: 1150

In: May I ask what Ratio IC50 has been recorded for CC(=O)c1cccc(OCc2ccc([N+](=O)[O-])cc2)c1 ?
Out: 1180

In: May I ask what Ratio IC50 has been recorded for CC(=O)c1ccc(OCc2ccc(C)cc2)cc1 ?
Out: > 980

In: May I ask what Ratio IC50 has been recorded for CC(=O)c1cccc(OCc2cccc(C)c2)c1 ?
Out: > 112

In: May I ask what Ratio IC50 has been recorded for CC(=O)c1ccc(OCc2ccccc2F)cc1 ?
Out: > 1760

In: May I ask what Ratio IC50 has been recorded for CC(=O)c1cccc(OCc2ccc(C)cc2)c1 ?
Out: > 714

In: May I ask what Ratio IC50 has been recorded for CC(=O)c1ccc(OCc2cc(F)c(F)c(F)c2)cc1 ?
Out: > 1190

In: May I ask what Ratio IC50 has been recorded for CC(=O)c1ccc(OCc2ccc(Cl)cc2)cc1 ?
Out: 1480

---

Target: Amine oxidase [flavin-containing] B (Homo sapiens)
Test: Inhibition of human MAOB using p-tyramine as substrate after 15 mins by Amplex Red MAO assay
parameter measured: IC50 (nM)

Consider the reported IC50 for these compounds:
CC(=O)c1cccc(OCc2ccc([N+](=O)[O-])cc2)c1 75.4
CC(=O)c1cccc(OCc2cccc(Br)c2)c1 96.3
CC(=O)c1ccc(OCc2ccccc2C(F)(F)F)cc1 183

I = CC(=O)c1ccc(OCc2ccc(Cl)cc2)cc1
II = CC(=O)c1ccc(OCc2cccc([N+](=O)[O-])c2)cc1
In: Would you kindly point out which of I and II has the smaller IC50 figure? Write down the label of the entry you select.
Out: I
(I: 63.2 nM, II: 104 nM)

---

Target: Amine oxidase [flavin-containing] A (Homo sapiens)
Test: Inhibition of human MAOA using p-tyramine as substrate at 100 uM after 15 mins by Amplex Red MAO assay
Conditions: 0.25 h
parameter measured: inhibition at 100 µM (%)

compound	inhibition at 100 µM, %
CC(=O)c1ccc(OCc2cccc(Br)c2)cc1	48.3
CC(=O)c1ccc(OCc2ccc(C(F)(F)F)cc2)cc1	26.4
CC(=O)c1cccc(OCc2cccc(C(F)(F)F)c2)c1	46.7
CC(=O)c1ccc(OCc2ccc(Br)cc2)cc1	23.2
CC(=O)c1ccc(OCc2cc(F)c(F)c(F)c2)cc1	44.3

P = CC(=O)c1ccc(OCc2ccc(F)cc2F)cc1
Q = CC(=O)c1cccc(OCc2ccc(C(F)(F)F)cc2)c1
R = CC(=O)c1cccc(OCc2cccc([N+](=O)[O-])c2)c1
S = CC(=O)c1ccc(OCc2ccc(C)cc2)cc1
In: Falling order of inhibition at 100 µM, please. # output: labels, in the requested order
Out: P, Q, R, S
(P: 45.7%, Q: 27.2%, R: 17.8%, S: 5.96%)

I = CC(=O)c1ccc(OCc2cccc(C(F)(F)F)c2)cc1
II = CC(=O)c1cccc(OCc2ccccc2)c1
In: Would you kindly point out which of I and II has the smaller inhibition at 100 µM figure? Write down the label of the entry you select.
Out: II

P = CC(=O)c1cccc(OCc2ccc(F)cc2)c1
Q = CC(=O)c1cccc(OCc2cccc(C)c2)c1
R = CC(=O)c1ccc(OCc2ccccc2)cc1
In: Falling order of inhibition at 100 µM, please. # output: labels, in the requested order
Out: P, Q, R

P = CC(=O)c1ccc(OCc2ccccc2F)cc1
Q = CC(=O)c1cccc(OCc2cccc(F)c2)c1
In: Would you kindly point out which of P and Q has the smaller inhibition at 100 µM figure? Write down the label of the entry you select.
Out: Q
(Q: 31%, P: 47.1%)

I = CC(=O)c1ccc(OCc2ccccc2C)cc1
II = CC(=O)c1cccc(OCc2ccc(C)cc2)c1
In: Two entries are listed, I and II . Which one carries the higher inhibition at 100 µM? Write down the label of the entry you select.
Out: I

---

Biological target: Amine oxidase [flavin-containing] B (Homo sapiens, UniProt P27338)
Sequence (P27338 whole entry): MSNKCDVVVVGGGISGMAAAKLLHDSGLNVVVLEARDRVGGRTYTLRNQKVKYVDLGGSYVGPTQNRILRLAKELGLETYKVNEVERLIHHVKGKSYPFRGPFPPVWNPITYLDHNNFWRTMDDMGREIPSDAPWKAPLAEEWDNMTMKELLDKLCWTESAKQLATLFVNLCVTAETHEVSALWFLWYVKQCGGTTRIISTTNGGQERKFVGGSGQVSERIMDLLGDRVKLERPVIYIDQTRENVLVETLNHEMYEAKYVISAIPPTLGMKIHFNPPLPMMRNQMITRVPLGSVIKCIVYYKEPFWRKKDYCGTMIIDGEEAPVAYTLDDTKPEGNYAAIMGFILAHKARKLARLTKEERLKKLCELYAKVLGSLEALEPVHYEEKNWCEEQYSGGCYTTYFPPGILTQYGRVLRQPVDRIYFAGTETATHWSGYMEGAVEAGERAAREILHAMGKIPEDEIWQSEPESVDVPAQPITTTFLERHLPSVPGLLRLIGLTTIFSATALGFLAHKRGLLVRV
Assay: Inhibition of human MAOB using p-tyramine as substrate after 15 mins by Amplex Red MAO assay
parameter measured: IC50 (µM)

CC(=O)c1cccc(OCc2ccc(C)cc2)c1 0.14

P = CC(=O)c1ccc(OCc2ccc(C)cc2)cc1
Q = CC(=O)c1cccc(OCc2cccc(C)c2)c1
In: Two entries are listed, P and Q . Which one carries the higher IC50? Write down the label of the entry you select.
Out: Q
(Q: 0.893 µM, P: 0.102 µM)
